Measured values drawn from patent US12594264B2 for this set.

Consider the following compounds; for each one, report its remaining activity at 1 µM.
Biological target: sarkosyl insoluble (SI) α-synuclein (human α-SYN A53T) (Homo sapiens, UniProt P37840, A53T)
Construct: expressed in transfected cells
Test: MJFF-14-6-4-2 conformation specific ELISA of sarkosyl insoluble α-synuclein after compound treatment
Format: cell-based
Conditions: 1 μM compound; protein remaining relative to DMSO control; PFF induced A53T α-synuclein overexpressing HEK293 cells; read-out: Protein Degradation at 1 μM

Give me measured remaining activity at 1 µM, please, for this compound: COc1ccc2nc(-c3ccc(N4CC(OC5CCN(CCN6CCN(c7ccc8c(c7)C(=O)N(C7CCC(=O)NC7=O)C8=O)CC6)CC5)C4)cc3)sc2c1 (centres unmarked) 35 to 70%

Write down remaining activity at 1 µM measured for item O=C1CCC(N2C(=O)c3ccc(OCCCCCN4CCC(O[C@H]5C[C@H](Oc6ccc7c(c6)Sc6cc([N+](=O)[O-])ccc6N7)C5)CC4)cc3C2=O)C(=O)N1 (some centres unmarked) 35 to 70%

Return the recorded remaining activity at 1 µM value; entry: CNc1ccc(-c2nc3ccc(OCCOCCOCCOCC(=O)N[C@H](C(=O)N4C[C@H](O)C[C@H]4C(=O)N[C@@H](C)c4ccc(-c5scnc5C)cc4)C(C)(C)C)cc3s2)cc1 35 to 70%

Given the compound Cc1ncsc1-c1ccc([C@H](C)NC(=O)[C@@H]2C[C@@H](O)CN2C(=O)[C@@H](NC(=O)COCCOCCOc2ccc3c(c2)Sc2cc([N+](=O)[O-])ccc2N3)C(C)(C)C)cc1 , write its reported remaining activity at 1 µM. 70 to 120%

Identify measured remaining activity at 1 µM corresponding to Cc1ncsc1-c1ccc([C@H](C)NC(=O)[C@@H]2C[C@@H](O)CN2C(=O)[C@@H](NC(=O)CN2CCN(CCN3CCC(O[C@H]4C[C@H](Oc5ccc6c(c5)Sc5cc([N+](=O)[O-])ccc5N6)C4)CC3)CC2)C(C)(C)C)cc1 < 35%
